# protocol: Solubility
# details: n-hexane
experimental_endpoint: solubility in n-hexane

>>> result("CO[C@@H]1[C@@H](O)[C@@H](O[C@H]2[C@H](Oc3cccc4c(=O)c5c(O)c(=O)c6ccc(C)c7c(=O)oc(c-5c67)c34)O[C@H](C)[C@H](O)[C@@H]2O)O[C@H](C)[C@@H]1OC")
"insoluble"
>>> result("CO[C@@H]1[C@@H](O)[C@@H](O[C@H]2[C@H](Oc3cccc4c(=O)c5c(N)c(=O)c6ccc(C)c7c(=O)oc(c-5c67)c34)O[C@H](C)[C@H](O)[C@@H]2O)O[C@H](C)[C@@H]1OC")
"insoluble"
>>> result("CO[C@@H]1[C@H](O)[C@@H](O)[C@@H](O[C@H]2[C@H](Oc3cccc4c(=O)c5c(N)c(=O)c6ccc(C)c7c(=O)oc(c-5c67)c34)O[C@H](C)[C@H](O)[C@@H]2O)O[C@@H]1C")
"practically insoluble"
>>> result("CO[C@H]1[C@@H](O)[C@@H](C)O[C@H](O[C@H]2[C@H](Oc3cccc4c(=O)c5c(N)c(=O)c6ccc(C)c7c(=O)oc(c-5c67)c34)O[C@H](C)[C@H](O)[C@@H]2O)[C@@H]1O")
"practically insoluble"
>>> result("Cc1ccc2c(=O)c(N)c3c(=O)c4cccc(O[C@@H]5O[C@H](C)[C@H](O)[C@H](O)[C@H]5O[C@H]5O[C@H](C)[C@H](O)[C@H](O)[C@H]5O)c4c4oc(=O)c1c2c4-3")
"practically insoluble"
